Just for reference, PubChem BioAssay (NCI) is where these values come from.

- Tested on: UACC-257 melanoma
- test details: NCI-60 one-dose screen, 48 h (100 = growth as untreated, 0 = no growth, -100 = all killed)
- condition info: 10 µM unless noted
This is part of a sample that, as a whole, favours compounds with a hit. Of some 83,000 tested, about 20% had one in any assay.
growth strictly less than 80% = true (1). Otherwise false (0).

Worked examples, 8 molecules total:
{"molecule": "CC(=O)N1N=C(c2cccc(-n3cccc3)c2)CC1c1cccc(F)c1 (stereo not drawn)", "answer label": "false (0)"}
{"molecule": "CCNC(=O)N1CCc2cc(OC)c(OCCc3ccc(OC)nc3)cc2C1c1ccc(OC)cc1C (stereo not drawn)", "answer label": "true (1)"}
{"molecule": "NS(=O)(=O)c1ccc(Nc2nc(N/N=C/c3ccccn3)nc(Nc3ccccc3)n2)cc1", "answer label": "true (1)"}
{"molecule": "O=C1CC(=O)N2CSCN(C(c3ccccc3)c3nc4ncncc4[nH]3)C2=N1 (stereo not drawn)", "answer label": "false (0)"}
{"molecule": "C=CCn1c(SCC(=O)Nc2ccc(C(=O)/C=C/c3ccc(Cl)cc3)cc2)nnc1-c1c[nH]c2ccccc12", "answer label": "false (0)"}
{"molecule": "COc1ccc(N2C(=O)c3cc(Cl)ccc3NC2SCc2ccccc2)cc1 (stereo not drawn)", "answer label": "false (0)"}
{"molecule": "CCO/C=N/C1=C(C#N)C(c2ccc(F)cc2)c2sc3c(C)cccc3c2O1 (stereo not drawn)", "answer label": "true (1)"}
{"molecule": "Cc1ccc(-n2cc(/C=N/NC(=O)c3ccncc3)c(-c3ccc(S(C)(=O)=O)cc3)n2)cc1", "answer label": "false (0)"}

Moving on to the next molecule.
Request: Here's an entry: O=C(CSc1nnc(-c2ccc3nc(-c4ccccc4)[nH]c3c2)o1)Nc1ccc(C(=O)/C=C/c2ccccc2)cc1 . Is its growth below 80%?
Response: false (0)

* * *

- Tested on: SF-295 CNS
- test details: NCI-60 one-dose screen, 48 h
- condition info: 10 µM unless noted
This is part of a sample that, as a whole, favours compounds with a hit. Of some 83,000 tested, about 20% had one in any assay. The source made the active and inactive calls. The calls were made as follows: active = growth percent below 10; inactive = the rest.
Respond using exactly one of the listed classes: active, inactive

As a guide, the following entries are already answered.
{"compound": "C#Cc1nc(C(=O)NCCC(=O)Nc2ccc(NC(=O)c3ccc(/C=C/C(=O)c4nccn4C)cc3)cc2)cs1", "answer label": "inactive"}
{"compound": "O=C(NCc1ncc[nH]1)c1ccc(-c2nc3ccc4[nH]ncc4c3c3c2CCCC3)cc1", "answer label": "inactive"}
{"compound": "COc1ccccc1-n1cc(C#N)c(N)c1C(=O)c1ccc(C)cc1", "answer label": "inactive"}
{"compound": "N#C/C(=C\\c1ccc(-c2ccc(Cl)cc2Cl)o1)c1ccc(F)cc1", "answer label": "inactive"}
{"compound": "COc1cc(-c2ccc3ncnc(NCc4ccccc4)c3c2)cnc1OC", "answer label": "inactive"}

Moving on to the next compound.
Request: In this assay, the call recorded for COc1ccc(/C=N/NC(=O)c2cn(C3CC3)c3c(OC)c(N4CC5CCCNC5C4)c(F)cc3c2=O)cc1 (centres undefined) was what?
Response: inactive

* * *

- Test system: CCRF-CEM leukemia
- test details: NCI-60 one-dose screen, 48 h (100 = growth as untreated, 0 = no growth, -100 = all killed)
- condition info: 10 µM unless noted
This is part of a sample that, as a whole, favours compounds with a hit. Of some 83,000 tested, about 20% had one in any assay. Activity calls are given as the source filed them. The calls were made as follows: active = growth percent below 10; inactive = the rest.
growth listing for selected compounds.

The following compounds have reported results that may help.
{"compound": "NS(=O)(=O)c1ccc(Nc2cc(-c3ccccc3)nc(SCC(=O)c3ccccc3)n2)cc1", "experimental endpoint": "growth", "observed": "98.3% (inactive)"}
{"compound": "CNC(=O)c1c(NC(=O)c2cccc(C(F)(F)F)c2F)sc2c1CCC(=O)C2", "experimental endpoint": "growth", "observed": "13.6% (inactive)"}
{"compound": "O=C1Nc2ccccc2/C1=C/c1ccc(CO)n1-c1ccc(Cl)cc1", "experimental endpoint": "growth", "observed": "33% (inactive)"}
{"compound": "COc1ccc(C(=O)Nc2ncc(Cc3ccccc3Cl)s2)cc1", "experimental endpoint": "growth", "observed": "18.7% (inactive)"}
{"compound": "COc1ccc(-n2c(SCc3n[nH]c(=S)o3)nc3ccc(Cl)cc3c2=O)cc1", "experimental endpoint": "growth", "observed": "98.7% (inactive)"}

Request: Query (compound): COc1ccc(-c2nc3cccc(O)c3c(=O)n2Cc2ccccc2)cc1COc1ccc(NC(C)=O)cc1 ; field requested: growth
Response: 41.6% [3 µM] (inactive)

Request: Record request: growth value, item CC(=O)N1C(=S)NC(=O)C1CC(C)C (centres undefined)
Response: 103% (inactive)

* * *

- System: NCI-H226 lung
- test details: NCI-60 one-dose screen, 48 h (100 = growth as untreated, 0 = no growth, -100 = all killed)
- condition info: 10 µM unless noted
The panel holds about 83,000 compounds, 20% with a hit somewhere; the sample as a whole holds those more often.
Listing: growth of selected compounds
Unit % implied. Number only.

{"structure smiles string": "Cc1ccc(CSc2nc(-c3ccc(Cl)cc3)c(C#N)c(N3CCOCC3)n2)cc1", "experimental endpoint": "growth", "observed": 94.4}
{"structure smiles string": "CCCCCc1ccc(S(=O)(=O)Nc2cccc(-c3csc(NC(=O)CNCCN(C)C)n3)c2)cc1", "experimental endpoint": "growth", "observed": 87.5}
{"structure smiles string": "C=C(C=O)[C@@H]1CC[C@]2(CO)CC[C@]3(C)[C@H](CC[C@@H]4[C@@]5(C)CCCNC(C)(C)[C@@H]5CC[C@]43C)[C@@H]12", "experimental endpoint": "growth", "observed": 76.5}
{"structure smiles string": "Fc1ccc(-c2cc3nc(C(Cl)Cl)nc(-c4ccco4)n3n2)cc1", "experimental endpoint": "growth", "observed": 93.2}

Request: I would be grateful if you could share the reported growth for C#Cc1nc(C(C)=O)cs1 .
Response: 99.7

* * *

- Test system: NCI/ADR-RES ovarian
- test details: NCI-60 one-dose screen, 48 h (100 = growth as untreated, 0 = no growth, -100 = all killed)
- condition info: 10 µM unless noted
This is part of a sample that, as a whole, favours compounds with a hit. Of some 83,000 tested, about 20% had one in any assay.
experimental endpoint: growth (%)
Numbers only here, please. The scale is %.

Examples with answers:
{"molecule": "CN1CCN(Cc2ccc(NC(=O)c3cncc(C#Cc4cnc5ccc(OCC(C)(C)O)nn45)c3)cc2C(F)(F)F)CC1", "system": "NCI/ADR-RES ovarian", "growth, %": 33.9}
{"molecule": "Cc1ccc(NC(=O)c2ccc(CN3CCOCC3)c(C(F)(F)F)c2)cc1Oc1ccc(-c2[nH]nc3ncnc(N)c23)cc1", "system": "NCI/ADR-RES ovarian", "growth, %": 87.9}
{"molecule": "CS(=O)(=O)Nc1cc(-c2ccc3ncc(C#N)c(NCc4ccccc4)c3c2)cnc1Cl", "system": "NCI/ADR-RES ovarian", "growth, %": 24.5}
{"molecule": "CCN1CCN(Cc2cn(-c3ccc(S(N)(=O)=O)cc3)nn2)CC1", "system": "NCI/ADR-RES ovarian", "growth, %": 111}
{"molecule": "Cc1ccc(N2C(=O)/C(=C/C=C/c3ccco3)SC2=S)cc1", "system": "NCI/ADR-RES ovarian", "growth, %": 97.6}
{"molecule": "C=C(C)[C@@H]1CC[C@]2(C(=O)NCCCCCN(CCC#N)CCC#N)CC[C@]3(C)[C@H](CC[C@@H]4[C@@]5(C)CCC(=O)C(C)(C)[C@@H]5CC[C@]43C)[C@@H]12", "system": "NCI/ADR-RES ovarian", "growth, %": 108}

For the next question, use this molecule.
Request: Which growth value is on record for NC(N)=Nc1ccc(Oc2cccc(Nc3ccc(Cl)c(C(F)(F)F)c3)c2)cn1 ?
Response: 53.6

* * *

- Tested on: NCI-H226 lung
- test details: NCI-60 one-dose screen, 48 h (100 = growth as untreated, 0 = no growth, -100 = all killed)
- condition info: 10 µM unless noted
- Experimental: Growth inhibition of the NCI-H226 human Non-Small Cell Lung tumor cell line is measured as a screen for anti-cancer activity. Cells are grown in 96 well plates and exposed to the test compound for 48 hours. Compounds are tested at a single concentration, which is 10^-5 M for most compounds. The reported endpoint is percent growth (GI% or GIPRCNT), where numbers from 0 - 100% represent growth inhibition, and numbers from -100% - 0 represent cell death. […]
The panel holds about 83,000 compounds, 20% with a hit somewhere; the sample as a whole holds those more often.
The entries below come with measured growth values attached.
Answer with a number only, understood to be in %.

{"molecule": "O=c1c2ccccc2nc(COc2ccccc2)n1NS(=O)(=O)c1ccc(Cl)cc1", "experimental endpoint": "growth", "observed": 83}
{"molecule": "O=S(=O)(NCCCNc1nccc(-c2[nH]c(-c3ccccc3)nc2-c2ccc(Cl)c(O)c2)n1)c1cccc2ccccc12", "experimental endpoint": "growth", "observed": 32.9}
{"molecule": "CCO/C=N/C1=C(C#N)C(c2ccc(Cl)cc2)c2sc3c(CC)cccc3c2O1 (stereo not given)", "experimental endpoint": "growth", "observed": 54.7}
{"molecule": "NC(=O)c1c(NC(=O)c2ccccc2C(F)(F)F)sc2c1CCC(=O)C2", "experimental endpoint": "growth", "observed": 37.9}

Request: Could you tell me which growth is on file for O=C1CC(=O)N2CSCN(C(c3ccccc3)c3nc4ncncc4[nH]3)C2=N1 (stereo not given) ?
Response: 107
